Reference source: the supplement of paper PMC10567573

B1: LRRC45 (parent)
chain: DLSAANEKNLLLQNQVDELERKFR

Variants of: B1
Assay text: protein stability index of a GFP-peptide fusion (GPS, HEK-293T) (PSI 1-6); higher = more stable;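 also: lentivirally expressed fusions sorted by FACS into six bins by GFP to DsRed ratio, PSI derived from sequencing read proportions per bin multiplied by bin number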
Measurement conditions: c terminus: a fixed tail appended
Reported endpoint: protein stability index

- Variant label: "L19V"
  Reported endpoint: "protein stability index"
  Measured number: 4.31
- Variant label: "F23D"
  Reported endpoint: "protein stability index"
  Measured number: 5
- Variant label: "R24P"
  Reported endpoint: "protein stability index"
  Measured number: 4.59
- Variant label: "L12D"
  Reported endpoint: "protein stability index"
  Measured number: 4.46
- Variant label: "K8N"
  Reported endpoint: "protein stability index"
  Measured number: 4
- Variant label: "S3L"
  Reported endpoint: "protein stability index"
  Measured number: 3.51
- Variant label: "E20T"
  Reported endpoint: "protein stability index"
  Measured number: 3.43
- Variant label: "Q15A"
  Reported endpoint: "protein stability index"
  Measured number: 3.57
- Variant label: "S3Y"
  Reported endpoint: "protein stability index"
  Measured number: 3.58
- Variant label: "L2I"
  Reported endpoint: "protein stability index"
  Measured number: 3.27
